All values here come from ChEMBL document CHEMBL4325849.

experiment description: Binding affinity to NT-647 labeled Streptococcus pyogenes His-tagged SrtA deltaN81 mutant expressed in Escherichia coli BL21(DE3) by microscale thermophoresis method
pKd: −log10 of the molar value.

{"smi": "Nc1[nH]c2cc(Cl)ccc2c1C(=O)N1CCOCC1", "pKd": 4.22}

* * *

Each entry below carries its reported inhibition.
System: Streptococcus pyogenes
experiment description: Inhibition of Streptococcus pyogenes SrtA deltaN81 mutant expressed in Escherichia coli BL21(DE3) at 100 uM using Abz-LPETA-Dap(Dnp) as substrate preincubated for 10 mins followed by substrate addition measured every min for 2.5 hrs by fluorimetric assay relative to control

{"compound": "O=C(O)c1ccc2ccccc2n1", "inhibition, %": 23.1}
{"compound": "Nc1c(C(=O)N2CCOCC2)cnn1Cc1ccccc1", "inhibition, %": 1}
{"compound": "CCOC(=O)NCCc1c[nH]c2ccc(OC)cc12", "inhibition, %": 11.7}
{"compound": "Nc1[nH]c2cc(C(F)(F)F)ccc2c1C(=O)NC1CCCCC1", "inhibition, %": -6.3}
{"compound": "COc1ccc(C(O)c2[nH]c3ccccc3c2CCN)cc1 (centres undefined)", "inhibition, %": 60.8}
{"compound": "CC(C)NCC(O)COc1cccc2ccccc12 (centres undefined)", "inhibition, %": -4.2}
{"compound": "Cn1c2c(c3ccccc31)C(=O)NCC2", "inhibition, %": 20.5}
{"compound": "CCOC(=O)c1[nH]c2cc(Cl)ccc2c1C=O", "inhibition, %": 25.7}
{"compound": "CCOC(=O)c1[nH]c2cc(Cl)ccc2c1C#Cc1ccccc1", "inhibition, %": 118}
{"compound": "Cn1c(=O)c2[nH]cnc2n(C)c1=O", "inhibition, %": 2.3}
{"compound": "Nc1[nH]c2ccccc2c1C(=O)NC1CC1", "inhibition, %": 29.2}
{"compound": "O=[N+]([O-])c1cccc2[nH]ccc12", "inhibition, %": 21.2}
{"compound": "O=c1c2cc3cc(Cl)ccc3nc2ncn1N1CCCCC1", "inhibition, %": 42.2}
{"compound": "O=C(O)c1cc2ccccc2[nH]1", "inhibition, %": 4.5}
{"compound": "CCC(=O)N1CCN(c2ncccn2)CC1", "inhibition, %": 11.6}
{"compound": "Cn1c(C(=O)O)cc2ccccc21", "inhibition, %": 8.2}
{"compound": "CCOC(=O)c1c(C=O)c(C)n(-c2ccccc2)c1C", "inhibition, %": 2.9}
{"compound": "CCOC(=O)c1cc2ccccc2[nH]1", "inhibition, %": 16.4}
{"compound": "Nc1nccc(O)n1", "inhibition, %": 14.5}
{"compound": "Oc1ccc2ncccc2c1", "inhibition, %": 115}
{"compound": "CCCN1CCOC2c3c(ccc4[nH]ccc34)OCC21 (centres undefined)", "inhibition, %": 13.4}
{"compound": "O=C(O)c1cccs1", "inhibition, %": 1.4}
{"compound": "NC(Cc1c[nH]c2ccccc12)C(=O)O (centres undefined)", "inhibition, %": 5.5}
{"compound": "Nc1ccc(S(=O)(=O)Nc2ccccn2)cc1", "inhibition, %": 3.8}
{"compound": "NCCc1c[nH]c2ccccc12", "inhibition, %": -5.3}
{"compound": "Nc1c(C(=O)NCC(O)c2ccccc2)cnn1-c1ccccc1 (centres undefined)", "inhibition, %": 35.4}
{"compound": "O=C(O)c1cc2ccccc2s1", "inhibition, %": 4.5}
{"compound": "O=c1cc[nH]c(=O)[nH]1", "inhibition, %": 2.7}
{"compound": "CC(=O)NCCc1c[nH]c2ccc(O)cc12", "inhibition, %": 10.8}
